Hello, the source for this data is patent US12398132B2, in case you need it.

target: CDK9/CyclinT1 (Homo sapiens); assay: ADP Glo kinase assay, CDK9/CyclinT1; details: CDK9T1; apparent Ki calculated from Km (ATP) and IC50; read-out: CDK inhibition Ki
Sequence (P50750 whole entry, species assumed): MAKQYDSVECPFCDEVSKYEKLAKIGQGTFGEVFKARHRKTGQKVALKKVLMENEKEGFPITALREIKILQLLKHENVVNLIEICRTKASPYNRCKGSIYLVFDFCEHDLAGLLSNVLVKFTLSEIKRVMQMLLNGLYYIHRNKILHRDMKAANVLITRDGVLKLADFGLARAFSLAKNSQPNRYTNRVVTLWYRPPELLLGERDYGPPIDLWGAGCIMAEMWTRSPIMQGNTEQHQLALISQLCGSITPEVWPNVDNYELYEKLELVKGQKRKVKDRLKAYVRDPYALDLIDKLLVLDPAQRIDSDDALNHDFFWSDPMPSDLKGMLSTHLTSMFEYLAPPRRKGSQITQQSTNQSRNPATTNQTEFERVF
Sequence (O60563 whole entry partner, species assumed): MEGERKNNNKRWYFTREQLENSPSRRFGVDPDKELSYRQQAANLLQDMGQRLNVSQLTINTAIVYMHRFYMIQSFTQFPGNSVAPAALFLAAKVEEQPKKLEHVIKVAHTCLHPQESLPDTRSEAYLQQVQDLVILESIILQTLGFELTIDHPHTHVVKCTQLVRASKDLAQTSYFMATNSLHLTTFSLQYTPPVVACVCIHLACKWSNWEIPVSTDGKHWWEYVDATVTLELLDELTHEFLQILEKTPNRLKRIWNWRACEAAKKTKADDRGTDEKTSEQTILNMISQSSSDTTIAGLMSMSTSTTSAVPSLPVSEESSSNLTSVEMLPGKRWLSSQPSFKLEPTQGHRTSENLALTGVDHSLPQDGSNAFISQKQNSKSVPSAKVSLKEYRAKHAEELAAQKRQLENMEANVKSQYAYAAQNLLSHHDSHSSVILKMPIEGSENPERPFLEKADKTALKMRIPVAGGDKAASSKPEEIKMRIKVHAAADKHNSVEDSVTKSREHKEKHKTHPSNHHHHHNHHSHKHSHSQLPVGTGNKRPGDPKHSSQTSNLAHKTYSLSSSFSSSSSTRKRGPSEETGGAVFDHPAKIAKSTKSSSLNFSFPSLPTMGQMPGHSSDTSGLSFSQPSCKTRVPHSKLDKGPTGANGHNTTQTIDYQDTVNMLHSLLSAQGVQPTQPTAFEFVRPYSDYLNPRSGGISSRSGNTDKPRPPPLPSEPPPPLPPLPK
Each item that follows carries a reported Ki.
property-label: Ki (µM)

> print(dat)
                               query.smiles                        target  comparison.sign  result.value
1  CC(=O)N1CCN(c2ccc(Nc3nccc(-c4cnc5ccc(C)cn45)n3)nc2)CC1  CDK9/CyclinT1 (Homo sapiens)                =         0.163
2  CC(=O)N1CCN(c2ccc(Nc3nccc(-c4cnc5ccc(-c6cc7ccccc7s6)cn45)n3)nc2)CC1  CDK9/CyclinT1 (Homo sapiens)                >             5
3  CN1CCN(c2ccc(Nc3nccc(-c4cnc5ccccn45)n3)nc2)CC1  CDK9/CyclinT1 (Homo sapiens)                =         0.085
4  CC(=O)N1CCN(c2ccc(Nc3nccc(-c4cnc5ccc(-c6ccccc6)cn45)n3)nc2)CC1  CDK9/CyclinT1 (Homo sapiens)                =         0.699
